Measured pIC50 of individual entries
Biological target: UniProt P49841
Sequence (P49841 whole entry, species assumed): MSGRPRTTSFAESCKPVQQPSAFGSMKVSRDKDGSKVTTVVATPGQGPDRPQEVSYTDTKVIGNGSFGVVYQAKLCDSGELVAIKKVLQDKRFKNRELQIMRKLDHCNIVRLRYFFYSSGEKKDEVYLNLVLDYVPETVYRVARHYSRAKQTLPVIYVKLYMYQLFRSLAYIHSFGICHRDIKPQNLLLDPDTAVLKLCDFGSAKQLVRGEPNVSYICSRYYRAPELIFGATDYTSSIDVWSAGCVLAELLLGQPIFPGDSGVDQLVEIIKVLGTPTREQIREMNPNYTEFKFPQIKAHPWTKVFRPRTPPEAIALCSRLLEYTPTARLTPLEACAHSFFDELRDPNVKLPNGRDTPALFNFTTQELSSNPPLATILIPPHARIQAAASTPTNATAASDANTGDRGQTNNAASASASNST
pIC50: −log10 of the molar value.

{"columns": ["compound", "pIC50"],
 "data": [
  ["Cc1c(-c2ccncn2)nc2n(c1=O)CCCN2CC(=O)c1ccccc1 [Table 1 No. 23]", 7.49],
  ["CC1(C)CCn2c(nc(-c3ccncn3)cc2=O)N1C[C@@H](O)c1ccccc1 [Table 3 No. 11]", 8.40],
  ["CC1(C)CN(C[C@@H](O)c2ccccc2)c2nc(-c3ccncn3)cc(=O)n2C1 [Table 1 No. 19]", 8.10],
  ["COc1cc(F)ccc1CCN1CCCn2c1nc(-c1ccncn1)cc2=O [Table 1 No. 91]", 8.46]
]}

---

Biological target: cdk5/p25 (Homo sapiens)
Sequence (Q00535 whole entry, species assumed): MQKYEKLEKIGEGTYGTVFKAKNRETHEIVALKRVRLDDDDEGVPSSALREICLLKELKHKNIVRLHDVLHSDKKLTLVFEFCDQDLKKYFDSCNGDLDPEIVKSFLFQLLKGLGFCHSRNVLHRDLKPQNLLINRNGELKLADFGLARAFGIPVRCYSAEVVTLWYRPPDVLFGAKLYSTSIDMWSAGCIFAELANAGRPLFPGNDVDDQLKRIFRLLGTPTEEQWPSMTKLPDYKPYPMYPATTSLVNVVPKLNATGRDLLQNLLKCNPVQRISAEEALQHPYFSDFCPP
Sequence (Q15078 99-307 partner limits assumed, species assumed): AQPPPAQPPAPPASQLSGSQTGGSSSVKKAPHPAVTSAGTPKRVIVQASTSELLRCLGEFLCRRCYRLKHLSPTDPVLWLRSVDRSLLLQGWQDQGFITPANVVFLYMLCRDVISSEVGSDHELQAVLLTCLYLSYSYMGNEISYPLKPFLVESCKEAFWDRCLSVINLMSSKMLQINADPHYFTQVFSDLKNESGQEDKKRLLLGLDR
Test: Inhibitory activity against cdk5/p25 (TPK2), 33P-ATP phosphorylation of Histone H1
pIC50: −log10 of the molar value.

{"columns": ["molecule", "relation", "pIC50"],
 "data": [
  ["O=c1c(Cl)c(-c2ccncn2)nc2n1CCCN2C[C@@H](O)c1ccccc1", "=", 6.08],
  ["COc1ccccc1CCN1CC(C)(C)Cn2c1nc(-c1ccncn1)cc2=O", "<", 6.00],
  ["CC1CCn2c(nc(-c3ccncn3)cc2=O)N1C[C@@H](O)c1ccccc1 (stereo partly shown)", "=", 6.08],
  ["CC1(C)CN(C[C@@H](O)c2ccccc2)c2nc(-c3ccncn3)cc(=O)n2C1", "=", 6.42],
  ["CC1(C)CCn2c(nc(-c3ccncn3)cc2=O)N1C[C@@H](O)c1ccccc1", "=", 5.93],
  ["CC1(C)CCn2c(nc(-c3ccncn3)cc2=O)N1C[C@@H](O)c1ccc(Cl)cc1", "<", 6.00],
  ["O=c1cc(-c2ccncn2)nc2n1CCCN2C[C@@H](O)c1ccccc1", "=", 6.31],
  ["Cc1c(-c2ccncn2)nc2n(c1=O)CCCN2CC(=O)c1ccccc1", "=", 6.12],
  ["COc1cc(F)ccc1CCN1CCCn2c1nc(-c1ccncn1)cc2=O", "<", 6.00],
  ["COc1cc(F)ccc1C(O)CN1CC(C)(C)Cn2c1nc(-c1ccncn1)cc2=O (racemic)", "<", 6.00]
]}

All figures here come from patent US7388005B2.
